Test: Tmax in Sprague-Dawley rat at 1 mg/kg, iv
Type: ADME, organism-based
Details: in vivo

{"columns": ["CPD_SMILES", "Tmax, min"],
 "data": [
  ["Cc1ccc(C(=O)N2CCC(Oc3cc(NC(=O)c4ccc(CN5CCN(C)CC5)c(C(F)(F)F)c4)ccc3C)CC2)cn1", 1.02]
]}

* * *

Target: Tyrosine-protein kinase Blk (Homo sapiens, UniProt P51451)
Sequence (P51451 whole entry, the tested form may be a part): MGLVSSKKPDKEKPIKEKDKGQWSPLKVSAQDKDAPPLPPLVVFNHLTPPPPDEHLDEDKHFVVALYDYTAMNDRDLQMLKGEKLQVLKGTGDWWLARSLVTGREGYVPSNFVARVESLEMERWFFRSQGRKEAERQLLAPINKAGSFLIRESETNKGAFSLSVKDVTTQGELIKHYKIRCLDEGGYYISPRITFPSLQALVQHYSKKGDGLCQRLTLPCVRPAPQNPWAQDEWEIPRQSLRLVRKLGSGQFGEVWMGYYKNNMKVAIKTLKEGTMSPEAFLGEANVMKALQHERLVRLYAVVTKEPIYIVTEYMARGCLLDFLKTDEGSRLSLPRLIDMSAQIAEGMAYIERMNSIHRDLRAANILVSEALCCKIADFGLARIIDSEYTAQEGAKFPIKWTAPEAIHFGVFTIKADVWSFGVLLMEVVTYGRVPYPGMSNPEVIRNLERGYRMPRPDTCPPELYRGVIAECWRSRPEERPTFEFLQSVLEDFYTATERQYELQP
Assay: Inhibition of full length recombinant His-tagged human BLK cytoplasmic domain expressed in baculovirus expression system measured after 1 hr by FRET based Z'Lyte assay
PROPERTY: IC50

{"columns": ["CPD_SMILES", "PROPERTY", "RESULT"],
 "data": [
  ["Cc1ccc(C(=O)N2CCC(Oc3cc(NC(=O)c4ccc(CN5CCN(C)CC5)c(C(F)(F)F)c4)ccc3C)CC2)cn1", "IC50", "0.081 µM"]
]}

* * *

Biological target: Mast/stem cell growth factor receptor Kit (Homo sapiens, UniProt P10721)
Sequence (P10721 whole entry): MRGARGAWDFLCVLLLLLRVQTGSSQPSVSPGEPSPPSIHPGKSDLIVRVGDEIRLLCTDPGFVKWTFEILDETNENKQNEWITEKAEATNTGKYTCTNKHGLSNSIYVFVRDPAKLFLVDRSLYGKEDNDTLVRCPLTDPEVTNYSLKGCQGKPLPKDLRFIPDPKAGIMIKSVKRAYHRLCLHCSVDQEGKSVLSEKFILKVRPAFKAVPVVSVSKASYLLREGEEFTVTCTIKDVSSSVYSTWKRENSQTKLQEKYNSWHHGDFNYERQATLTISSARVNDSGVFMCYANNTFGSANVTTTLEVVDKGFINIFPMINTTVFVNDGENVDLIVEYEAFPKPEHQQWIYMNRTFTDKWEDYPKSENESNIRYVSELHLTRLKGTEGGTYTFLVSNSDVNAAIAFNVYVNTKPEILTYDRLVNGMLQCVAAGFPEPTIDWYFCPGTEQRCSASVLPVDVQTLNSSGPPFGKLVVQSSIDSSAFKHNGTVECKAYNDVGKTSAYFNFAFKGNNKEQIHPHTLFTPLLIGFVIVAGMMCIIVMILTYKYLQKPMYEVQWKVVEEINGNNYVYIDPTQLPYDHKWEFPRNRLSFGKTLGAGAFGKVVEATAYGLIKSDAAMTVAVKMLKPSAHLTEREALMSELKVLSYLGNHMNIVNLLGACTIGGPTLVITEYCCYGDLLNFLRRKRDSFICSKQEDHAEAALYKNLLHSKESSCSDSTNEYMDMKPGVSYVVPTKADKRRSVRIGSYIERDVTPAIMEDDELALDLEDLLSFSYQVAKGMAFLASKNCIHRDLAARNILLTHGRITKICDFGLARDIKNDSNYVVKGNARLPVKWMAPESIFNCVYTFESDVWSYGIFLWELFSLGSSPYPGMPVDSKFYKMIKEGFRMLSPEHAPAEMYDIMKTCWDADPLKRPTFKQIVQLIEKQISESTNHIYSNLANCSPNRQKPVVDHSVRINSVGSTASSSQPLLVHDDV
Settings: BaF3
Description: Inhibition of Tel-fused c-KIT (unknown origin) expressed in BAF3 cells assessed as growth inhibition measured after 72 hrs by CellTiter-Glo or CCK8 assay
PROPERTY: log10(GI50) (log10 of the value in nM)

{"columns": ["COMPOUND", "log10(GI50)"],
 "data": [
  ["Cc1ccc(NC(=O)c2ccc(CN3CCN(C)CC3)c(C(F)(F)F)c2)cc1OC1CCN(C(=O)c2cnccc2C)CC1", 2.32],
  ["Cc1ccc(NC(=O)c2ccc(CN3CCN(C)CC3)c(C(F)(F)F)c2)cc1OC1CCN(S(=O)(=O)c2ccccc2)CC1", 2.78],
  ["Cc1ccc(NC(=O)c2ccc(CN3CCN(C)CC3)c(C(F)(F)F)c2)cc1OC1CCN(C(=O)c2cccnc2)CC1", 2.34],
  ["Cc1cncc(C(=O)N2CCC(Oc3cc(NC(=O)c4ccc(CN5CCN(C)CC5)c(C(F)(F)F)c4)ccc3C)CC2)c1", 1.45],
  ["Cc1ccc(NC(=O)c2ccc(CN3CCN(C)CC3)c(C(F)(F)F)c2)cc1OC1CCN(C(=O)c2ccccc2)CC1", 2.74],
  ["Cc1ccc(NC(=O)c2ccc(CN3CCN(C)CC3)c(C(F)(F)F)c2)cc1OC1CCN(C(=O)c2ccccn2)CC1", 2.30],
  ["Cc1ccc(NC(=O)c2ccc(CN3CCN(C)CC3)c(C(F)(F)F)c2)cc1OC1CCN(C(=O)c2ccc(=O)[nH]c2)CC1", 3.20],
  ["Cc1ccc(NC(=O)c2ccc(CN3CCN(C)CC3)c(C(F)(F)F)c2)cc1OC1CCN(C(=O)c2cccnc2F)CC1", 1.80],
  ["Cc1ccc(C(=O)N2CCC(Oc3cc(NC(=O)c4ccc(CN5CCN(C)CC5)c(C(F)(F)F)c4)ccc3C)CC2)cn1", 2.17],
  ["Cc1ccc(NC(=O)c2ccc(CN3CCN(C)CC3)c(C(F)(F)F)c2)cc1OC1CCN(C(=O)c2ccoc2)CC1", 2.43],
  ["Cc1ccc(NC(=O)c2ccc(CN3CCN(C)CC3)c(C(F)(F)F)c2)cc1OC1CCN(C(=O)c2cnc(N)nc2)CC1", 2.30],
  ["CN1CCN(Cc2ccc(C(=O)Nc3ccc(Cl)c(OC4CCN(C(=O)c5cccnc5)CC4)c3)cc2C(F)(F)F)CC1", 2.53],
  ["Cc1ccc(NC(=O)c2ccc(CN3CCN(C)CC3)c(C(F)(F)F)c2)cc1OC1CCN(C(=O)c2cncc(Cl)c2)CC1", 1.57],
  ["CCC(=O)N1CCC(Oc2cc(NC(=O)c3ccc(CN4CCN(C)CC4)c(C(F)(F)F)c3)ccc2C)CC1", 2.48],
  ["Cc1ccc(NC(=O)c2ccc(CN3CCN(C)CC3)c(C(F)(F)F)c2)cc1OCC1CN(C(=O)c2cccnc2)C1", 3.46],
  ["Cc1ccc(NC(=O)c2ccc(CN3CCN(C)CC3)c(C(F)(F)F)c2)cc1OC1CCN(C(=O)Cc2cccnc2)CC1", 2.89],
  ["Cc1ccc(NC(=O)c2ccc(CN3CCN(C)CC3)c(C(F)(F)F)c2)cc1OC1CCN(C(=O)c2cnc3ccccc3c2)CC1", 2.51],
  ["Cc1ccc(NC(=O)c2ccc(CN3CCN(C)CC3)c(C(F)(F)F)c2)cc1OC1CCN(C(=O)c2cccnc2Cl)CC1", 1.79],
  ["Cc1ccc(NC(=O)c2ccc(CN3CCN(C)CC3)c(C(F)(F)F)c2)cc1OC1CCN(c2ncccn2)CC1", 3.40],
  ["Cc1ccc(NC(=O)c2ccc(CN3CCN(C)CC3)c(C(F)(F)F)c2)cc1OCC1CCN(C(=O)c2cccnc2)C1 (stereo not drawn)", 3.58],
  ["COc1cc2ncnc(N3CCC(Oc4cc(NC(=O)c5ccc(CN6CCN(C)CC6)c(C(F)(F)F)c5)ccc4C)CC3)c2cc1OC", 2.28],
  ["Cc1ccc(NC(=O)c2ccc(CN3CCN(C)CC3)c(C(F)(F)F)c2)cc1OC1CCN(C(=O)c2ccsc2)CC1", 1.41],
  ["Cc1ccc(NC(=O)c2ccc(CN3CCN(C)CC3)c(C(F)(F)F)c2)cc1OC1CCN(C(=O)CN(C)C)CC1", 3.21],
  ["Cc1ccc(NC(=O)c2ccc(CN3CCN(C)CC3)c(C(F)(F)F)c2)cc1OC1CCN(C(=O)c2ccncc2)CC1", 2.23],
  ["Cc1ccc(NC(=O)c2ccc(CN3CCN(C)CC3)c(C(F)(F)F)c2)cc1OC1CCN(C(=O)c2cccnc2C)CC1", 2.57],
  ["Cc1ccc(NC(=O)c2ccc(CN3CCN(C)CC3)c(C(F)(F)F)c2)cc1OCCNC(=O)c1cccnc1", 3.52]
]}
